Taken from ChEMBL document CHEMBL1201862.

Would you mind telling me the reported GI50 of each entry?
Tested on: A498
Assay: NCI tumour cell line growth inhibition, 48 h
The source made the active and inactive calls. Cut-off read from the data, not from the text of the source: active = GI50 up to about 1.1 µM and inactive = higher.

These recorded examples may help you get a feel for the data.
1. Cc1ccc(-n2c3nc(=O)n(C)c(=O)c-3nc3ccccc32)c(C)c1    > 10 µM (inactive)
2. CCOC(=O)C(CS)NC(=O)CCCCCCCC(=O)O (stereo not given)    > 100 µM (inactive)

Please supply GI50 for each of the following items, keeping them in order.
1. CC(C)[Si](OC1=CCC[C@H]2NC(=O)[C@@H](Cc3ccccc3)[C@@]12C)(C(C)C)C(C)C
2. CN1CC=C(OP(=O)(NCc2ccccc2)N(CCCl)CCCl)CC1 (stereo not given)
3. CSc1ccc2c(cc1=O)[C@@H](NC(C)=O)CCc1cc(O)c(O)c(O)c1-2

5.79 µM (inactive)
> 100 µM (inactive)
23.3 µM (inactive)

====

Test system: M19-MEL
Assay: NCI tumour cell line growth inhibition, 48 h
Active and inactive are the calls of the source. Rule as the data show it: active = GI50 up to about 1.1 µM and inactive = higher.
Pick one: active, inactive

See these solved cases before continuing.
1. C=C1C(=O)OC2/C=C(\C)C(OC(C)=O)C3OC3C(C)(O)CC(OC(=O)/C(C)=C/C)C12 (centres undefined)    inactive
2. C=C(N=[N+]=[N-])c1cn(C2CC(O)C(CO)O2)c(=O)[nH]c1=O (centres undefined)    inactive
3. CCO/C=C1\N=C(c2ccc(Cl)c(Cl)c2)OC1=O    inactive
4. CC1(C)c2ccccc2N2C(c3ccccc3)=NOC21C (centres undefined)    inactive
5. CCC(=S)N(C)O    inactive

Record lookup: outcome of this test for CCOP(=S)(OCC)Oc1ccc2c(c1)OC(=O)C1(Cl)C2(C)C2(Cl)C(=O)Oc3cc(OP(=S)(OCC)OCC)ccc3C12C (centres undefined) ? inactive

Record lookup: outcome of this test for COC(=O)C1=C(c2cc(OC)c(OC)c(OC)c2)OC(c2ccc(OC)c(OC)c2)C1 (centres undefined) ? inactive

====

System: K562
Test: NCI tumour cell line growth inhibition, 48 h
The source made the active and inactive calls. Cut-off read from the data, not from the text of the source: active = GI50 up to about 1.1 µM and inactive = higher. Where a SMILES comes first, the peptide text is derived from it. The star is where a group is joined. Cbz = O=C(OCc1ccccc1)*; Boc = CC(C)(C)OC(=O)*; Bn = c1ccc(C*)cc1
readout label: GI50

These recorded examples may help you get a feel for the data.
1) COc1ccc(CCNC(=O)CCc2ccccc2CO)cc1OC    > 100 µM (inactive)
2) O=C1C(c2c(O)[nH]c3ccc(Br)cc23)=Nc2ccccc21    5.62 µM (inactive)
3) Cc1ccc(C(=O)/C=C(\O)C(=O)NC23CC4CC(CC(C4)C2)C3)cc1    5.64 µM (inactive)
4) OCCNCCOc1ccc(/C(=C(/Cl)c2ccccc2)c2ccccc2)cc1    2.85 µM (inactive)

Now look at this one.
Find the recorded GI50 belonging to CC(C)(C)OC(=O)NC(Cc1ccc(OCc2ccccc2)cc1)C(=O)NC(CCCCNC(=O)OCc1ccccc1)C(=O)O (stereo not given) (Boc-Tyr(Bn)-Lys(Cbz)-OH; configuration not given here) and report it. 42.8 µM (inactive)

====

Test system: HOP-62
Experiment: NCI tumour cell line growth inhibition, 48 h
The source made the active and inactive calls. Rule as the data show it: active = GI50 up to about 1.1 µM and inactive = higher.
Pick one: class 1 for active, class 0 for inactive

See these solved cases before continuing.
1. O=c1[nH]nc(-c2ccccc2)c2[nH]c(-c3ccccc3)cc12    class 0
2. COc1ccc2c(c1)[n+]([O-])c(/C(C)=N/NC(=O)CC#N)c[n+]2[O-]    class 0
3. C=CCc1cc(OC)c2c(c1)C(OC(C)=O)CC(c1ccc(OC)c(OC)c1)O2 (stereo not given)    class 0
4. C=CCn1c(=O)n(CC=C)c(=O)n(CC=C)c1=O    class 0
5. Nc1nc(N)c(-c2cccc(C(F)(F)F)c2)c(Cc2cccc(C(F)(F)F)c2)n1    class 0
6. N#CC(C#N)=C1CCCCc2ccc([N+](=O)[O-])cc21    class 0
7. COc1cccc(/C=N/[N-]C(=S)Nc2ccccc2)c1[O-].O.[Zn+2]    class 0
8. O=C(NC1CCCCC1NC(c1ccccc1)(c1ccccc1)c1ccccc1)C(=O)NC1CCCCC1NC(c1ccccc1)(c1ccccc1)c1ccccc1 (stereo not given)    class 0
9. CC(C)[C@@H]1CC[C@@H](C)C[C@H]1OC(=O)/C=C1/C2C=CC(O2)C1C(=O)O[C@@H]1C[C@H](C)CC[C@H]1C(C)C (stereo not given in full)    class 0
10. CC[C@@]1(O)C(=O)OCc2c1cc1n(c2=O)Cc2c-1nc1ccccc1c2CC[Si](C)(C)C [COSITECAN]    class 1

Next compound, please.
Record lookup: outcome of this test for COC(=O)C(/C(=N/N)C(=O)Nc1cccc(O)c1)c1nc2ccccc2nc1O (stereo not given) ? class 0

====

Test system: NCI-H460
Assay: NCI tumour cell line growth inhibition, 48 h
Active and inactive are the calls of the source. No stated cut-off is given here; in the data, active = GI50 up to about 1.1 µM and inactive = higher.
Pick one: 1 (yes) for active, 0 (no) for inactive

1) CCc1nc(N)nc(N)c1-c1ccc(Cl)c([N+]#N)c1    0 (no)
2) CC(C)(C)OC(=O)n1cc(C2CNC(=O)C23CCC(=O)N3Cc2ccccc2)c2ccccc21 (stereo not given)    0 (no)
3) Cc1ccc(/C=C2\CCCCC2=O)cc1    0 (no)
4) CCC1(OC(=O)CN2CCN(CCO)CC2)C(=O)OCc2c1cc1n(c2=O)Cc2cc3ccccc3nc2-1 (stereo not given)    1 (yes)

Next compound, please.
Record lookup: outcome of this test for COc1cccc(/C=N/n2c(-c3ccccc3)n[nH]c2=O)c1 ? 0 (no)

====

Test system: COLO 205
Test: NCI tumour cell line growth inhibition, 48 h
Calls of active or inactive are those of the source. Cut-off read from the data, not from the text of the source: active = GI50 up to about 1.1 µM and inactive = higher.
Pick one: T for active, F for inactive

1) CCOC(=O)C(COS(C)(=O)=O)(COS(C)(=O)=O)C(=O)OCC    F
2) Cc1c(NC(=O)c2cc([N+](=O)[O-])cc([N+](=O)[O-])c2)c(=O)n(-c2ccccc2)n1C    F
3) O=c1c2ccccc2c2nc3ccccc3nc2n1C1CCCCC1    F
4) Clc1ccc(C(n2cc(Br)cn2)n2cc(Br)cn2)cc1    F
5) O=[N+]([O-])/C(Cl)=C(\Sc1ccccc1)C(Cl)=C(Cl)Cl    T

Record lookup: outcome of this test for N#Cc1c(-c2ccccc2)nc(-c2ccccc2)sc1=S ? F

Record lookup: outcome of this test for C=C(C)C(CC=C(C)C)CC12CC(CC=C(C)C)C(C)(C)C(CC=C(C)C)(C(=O)C(Cc3ccc(O)c(O)c3)=C1O)C2=O (stereo not given) ? F

====

Would you mind telling me the reported GI50 of each entry?
System: IGROV-1
Experiment: NCI tumour cell line growth inhibition, 48 h
Calls of active or inactive are those of the source. No stated cut-off is given here; in the data, active = GI50 up to about 1.1 µM and inactive = higher.

These recorded examples may help you get a feel for the data.
1) Cc1ccc(Cc2nnc(S)[nH]2)cc1    50.8 µM (inactive)
2) Nc1ccccc1-n1c2c(c3ccccc3c1=O)C(=O)c1ccccc1-2    9.68 µM (inactive)

Now look at this one.
Find the recorded GI50 belonging to CCCCCc1cc2cc3c(c(O)c2c(=O)[nH]1)C1(CCC3)C(=O)c2c(O)ccc(O)c2C1=O and report it. > 100 µM (inactive)

====

Tested on: SK-MEL-5
Experiment: NCI tumour cell line growth inhibition, 48 h
Activity calls are given as the source filed them. No stated cut-off is given here; in the data, active = GI50 up to about 1.1 µM and inactive = higher.
Pick one: y = active, n = inactive

1. O=[N+]([O-])c1cc(Cl)c(Cl)cc1[N+](=O)[O-]    n
2. O=C(O)Cc1ccc(/N=N/c2c(O)c(C(=O)O)cc3ccccc23)cc1    n
3. CC1=C(C(=O)Nc2ccccc2)C(c2ccc(C(C)C)cc2)C(C(=O)Nc2ccccc2)=C(C)N1    n

Record lookup: outcome of this test for c1ccc(C(c2ccccc2)c2ccccn2)cc1 ? n

Record lookup: outcome of this test for NC(=S)N/N=C1\C(=O)N(CCc2ccccc2)C(=O)C1C(=O)NCCc1ccccc1 (stereo not given) ? n

Record lookup: outcome of this test for C=CCc1cc(OC)c2c(c1)C(OC(C)=O)CC(c1ccc(OC)c(OC)c1)O2 (stereo not given) ? n

====

System: T47D
Assay: NCI tumour cell line growth inhibition, 48 h
Calls of active or inactive are those of the source. No stated cut-off is given here; in the data, active = GI50 up to about 1.1 µM and inactive = higher.
readout label: GI50

These recorded examples may help you get a feel for the data.
1. C=CC(=O)NCCC(=O)OCn1cc(F)c(=O)[nH]c1=O    83.2 µM (inactive)
2. C=CCNC(NCC=C)=C(C(Cl)=C(Cl)Cl)[N+](=O)[O-]    30.5 µM (inactive)

Now look at this one.
Find the recorded GI50 belonging to BrC(c1cccc2ccccc12)c1cccc2ccccc12 and report it. 29.4 µM (inactive)

====

Would you mind telling me the reported GI50 of each entry?
System: Malme-3M
Test: NCI tumour cell line growth inhibition, 48 h
The source made the active and inactive calls. No stated cut-off is given here; in the data, active = GI50 up to about 1.1 µM and inactive = higher.

These recorded examples may help you get a feel for the data.
1) COC(=O)[C@H]1C=C[C@@H](C)n2c(=O)c3cc4ccccc4cc3c(=O)n21    > 100 µM (inactive)
2) C=Cc1ccccc1C1C(C(=O)OCC)=C(C)N=C2OC(C(=O)OC)C(=O)N21 (stereo unspecified)    > 100 µM (inactive)
3) Cc1nn(C(=O)c2ccc(Cl)cc2)c2c1C(c1ccc([N+](=O)[O-])cc1)SC(=N)N2 (stereo unspecified)    > 10 µM (inactive)
4) COc1cccc(/C=N/n2c(-c3ccccc3)n[nH]c2=O)c1    > 100 µM (inactive)
5) COc1cc(OC)cc(C(=O)CC(=O)c2cc(OC)cc(OC)c2)c1    > 100 µM (inactive)
6) Nc1nc(N)c2nc(-c3ccco3)cnc2n1    46.5 µM (inactive)
7) COc1ccc(/C=N/n2c(Cc3ccc(Cl)cc3)n[nH]c2=O)c(OC)c1    > 100 µM (inactive)
8) C=CCn1c(=O)n(CC=C)c(=O)n(CC=C)c1=O    > 100 µM (inactive)

Please supply GI50 for each of the following items, keeping them in order.
1. O=C(O)[C@@H](NS(=O)(=O)c1ccc(F)cc1)c1ccccc1
2. CCOC(=O)C1CCCCN1CCc1c[nH]c2ccccc12 (stereo unspecified)

1: > 100 µM (inactive); 2: > 100 µM (inactive)

Please supply GI50 for each of the following items, keeping them in order.
1. CC(C)=CCC1=C(OCC(=O)O)C(=O)c2ccccc2C1=O
2. COC(=O)c1ccccc1NC(=O)C(=O)CC(=O)CC(c1ccccc1)c1c(O)c2ccccc2oc1=O (stereo unspecified)
3. COC12c3ccccc3-c3ccccc3C1[C@@H](C(=O)O)[C@H]2C(=O)O (stereo partly specified)

1: 19.3 µM (inactive); 2: > 100 µM (inactive); 3: > 10 µM (inactive)

Please supply GI50 for each of the following items, keeping them in order.
1. NC(=O)c1cccc([C@@H]2O[C@H](CO)[C@@H](O)[C@H]2O)c1
2. CC(=O)c1ccc2c3c1[C@H]1O[C@H]1c1cccc(c1-3)[C@@H]1O[C@H]21
3. O/N=C1/Nc2cc(Cl)ccc2C(=S)N2CSCC12 (stereo unspecified)
4. COc1cc(/N=C(\N)N=C(N)N)c2ncccc2c1
5. O=C(c1c(F)c(F)c(F)c(F)c1F)n1c(O)nc2ccccc21
6. O=C1C([P+](c2ccccc2)(c2ccccc2)c2ccccc2)=C([O-])C(=Cc2ccc(Cl)c(Cl)c2)C([O-])=C1[P+](c1ccccc1)(c1ccccc1)c1ccccc1
7. Nc1ccc2c(c1)C(=O)c1ccccc1-2

1. > 100 µM (inactive)
2. 1.37 µM (inactive)
3. > 100 µM (inactive)
4. 44.7 µM (inactive)
5. 14.8 µM (inactive)
6. 2.34 µM (inactive)
7. > 100 µM (inactive)

Find the recorded GI50 belonging to CCC(C)CN1C(=O)NC(Cc2ccccc2)C1=O (stereo unspecified) and report it. > 100 µM (inactive)
